assay_comment: yeast display, Sf9 membrane polyspecificity reagent, FACS + sequencing; frameworks hold sequencing errors
endpoint_label: polyreactivity (PSR sort gate)

Worked cases, answers included:
>>> test_value("QVHLVESGGGLVQAGGSLRLSCAASGYRNAMGWYRQAPGKERELVAAISSGGSTYADSVKGRFTISRDNAKNTVYLQMNSLKPEDTAVYYCAAGPVPTYDYGNFDYWGQGTQVTVSS")
"low polyreactivity"
>>> test_value("QVQLVESGGGLVQAGGSLRLSCPASGFIFYDYAMGWYRQAPGKERELVAAISSGGSTNYADSVKGRFTISRDNAKNTVYLQMNSLKPEDTAVYYCAADDRSYATWKRDYDYWGQGTQVTVSS")
"low polyreactivity"
>>> test_value("QVQLVESGGGLVQAGGSLRLSCAASGSTYTNAMGWYRQAPGKERELVAAITWSGGTTYYADSVKGRFTISLDNAKNTVYLPMNSLKPEDTAVYYCAAEYRWYSWGQGTQVSVSS")
"high polyreactivity"
>>> test_value("QVQLVESGGGLVQAGGSLRLISAASGINFTGYAMGWYRQAPGKERELVAAISYSAASTYYADSVKGRFTISRDTAKNTVYLQMNSLKPEDTAVYYCAATAPSRSYPFRYYYWGQGTQVTVSS")
"high polyreactivity"
>>> test_value("QVQLVESGVGLVQAGGSLRLSFASSGRIFPTNAMGSYSQAPRKEREFVPAITWRGGSTYYADSVKGRFTISRDNAKNTVYLQINSLKPEDTAVYYCAATGHIVFFRAYDYGYWGQGTQVTVSS")
"low polyreactivity"

get_value(item= QVQLVESGGGLVQAGGSLRLSCAASGFTFWDNAMGWYRQAPGKERELVAAISRRGGTTYYADSVKGRFTISRDNAKNTVYLQMNRLKPEATAVYYCNARRRSVPYRYDFWGQGTQVTVSS , readout=polyreactivity (PSR sort gate)) returns high polyreactivity

----------
assay_comment: yeast display, Sf9 membrane polyspecificity reagent, FACS + sequencing; frameworks hold sequencing errors
endpoint_label: polyreactivity (PSR sort gate)

Worked cases, answers included:
>>> test_value("QDQLVESGGGLVQAGGSLRLSCAASGLTFPYYAMGWYRQAPGKERELVAAITWSGGTTDYADSVKGRFTISRDNAKNTVYLQMNSLKPEDTAVYYCAARFLWKGYYWGQGTQVTVSS")
"low polyreactivity"
>>> test_value("QVQLVESGGGLVQAGGSLRLSCASSGFIFYYNAMGWYRQAPVKERELVAAISYGGGSTYYADSVKGRFTISRDNAKNTVYLQMNSLKPEDTAVYYCSARVYWWNASLAGNYWGQGTQVTVSW")
"low polyreactivity"
>>> test_value("QVQLVESGGGLVQAGGSLRLSCAASGFTFASNAMGWYRQAPGKERELVADITNTGSTYYADSVKGRFTISRDNAKNTVYLQMNSLKPEDTAVYYCAARSRDVTDGQRISAPHGYWGQGTQVTVSS")
"low polyreactivity"
>>> test_value("QVQLVESGGGLVQAGGSLRLSCAASGFTFYSYAMGWYRQAPGKERELVATITASGGSTYYADSVKGRFTISRDNAKNSVYLQMISLKPEDTAVYYCAAYHPHGFDYYRYYYWGQGTQVTVSS")
"high polyreactivity"
>>> test_value("QVQLVESGGGLVQAGGSLRLSCAASGLIFPQYAMGWYRQAPGKERELVAAISLSGTSTNYADSVKGRFTISRDNAKNTVYLQMNSLKPEDTAVYYCLADQRITQSVELEYDSWGQGSQVTVSS")
"low polyreactivity"
>>> test_value("QVQLVETGPGLVQAGGSLRLSCAASGSIFGTYAMGWYRQAPGKERELVAAITGNGGRTYYADSVKGRFTISRDNAKNTVFLQMNSLKPEDTAVYYCAKATSRRGFYDWGPGTQVTVSS")
"high polyreactivity"

get_value(item= QVQLVESGGGLVQAGGSLRLSCAASGFIFQSYAMGWYRQAPGKERELVAAISSRGGSTYYADSVKGRFTISRDIAKNTVYLQMNSLKPEDTAVYYCAADLYGNEYDYWGQGTQVTVSS , readout=polyreactivity (PSR sort gate)) returns low polyreactivity

get_value(item= QVQLVESGGGLVQAGGSLRLSCAASGNTFSNYAMGWYRQAPGKEREFVAAIRKSGASTYYADSVKGRFTISRDNAKNSVYLQMNSLKPEDTAVYYCAADGQVSFALGFDYWGQGTQVTVSS , readout=polyreactivity (PSR sort gate)) returns high polyreactivity

get_value(item= QVQLVESGGGLVQAGGSLRLSCAASGRIFYTYAMGWYRQAPGKERELVATISGRGGSTYYADSVKGRFTISRDNAKNTVYLLMNSLKPEDTAVYYCAAVSYTQSHAYWGTGYRYGYWGQGTQVTVSS , readout=polyreactivity (PSR sort gate)) returns high polyreactivity

Hello, the source for this data is the nanobody polyreactivity screen of Harvey et al. (2022), in case you need it.
